Assay: Pharmacokinetic evaluation in rats
Type: in vivo, rat
Settings: rat, plasma, dose and route not given, read-out: t1/2 (plasma half-life) (converted)
MEASURED_PARAMETER: half-life (h)
Field: numeric (h). Do not append units.

So what does the record say about half-life for C[C@@H](OC[C@H](O)CNC(C)(C)Cc1ccc2ccccc2c1)c1cccc2c1O[C@@H]1[C@@H](C(=O)O)[C@H]21 [Example 1-1] ?
1.7

Give the measured half-life of CSc1ccc(CC(C)(C)NC[C@@H](O)CO[C@H](C)c2ccc(C)c3c2C2[C@H](O3)[C@H]2C(=O)O)cc1F (stereo partly drawn) [Example 8-24] .
1.8

Entry C[C@@H](OC[C@H](O)CNC(C)(C)Cc1ccc2ccccc2c1)c1cccc2c1[C@@H]1[C@H](O2)[C@H]1C(=O)O [Example 5-1] : reported half-life = ?
1.3

###

Assay: Pharmacokinetic evaluation in rats
Type: in vivo, rat
Conditions: rat, plasma, dose and route not given, read-out: Cmax (maximum observed plasma concentration)
MEASURED_PARAMETER: Cmax (µM)
Express your answer in µM, writing the number without its unit.

Look at this compound and give its reported Cmax. CSc1ccc(CC(C)(C)NC[C@@H](O)CO[C@H](C)c2ccc(C)c3c2C2[C@H](O3)[C@H]2C(=O)O)cc1F (stereo partly drawn)
0.16

Can you share its Cmax? I mean this compound: C[C@@H](OC[C@H](O)CNC(C)(C)Cc1ccc2ccccc2c1)c1cccc2c1O[C@@H]1[C@@H](C(=O)O)[C@H]21
2.4

Could you tell me which Cmax is on file for C[C@@H](OC[C@H](O)CNC(C)(C)Cc1ccc2ccccc2c1)c1cccc2c1[C@@H]1[C@H](O2)[C@H]1C(=O)O ?
0.69

###

Molecular target: human CaSR (Homo sapiens, UniProt P41180)
Sequence (P41180 20-1078): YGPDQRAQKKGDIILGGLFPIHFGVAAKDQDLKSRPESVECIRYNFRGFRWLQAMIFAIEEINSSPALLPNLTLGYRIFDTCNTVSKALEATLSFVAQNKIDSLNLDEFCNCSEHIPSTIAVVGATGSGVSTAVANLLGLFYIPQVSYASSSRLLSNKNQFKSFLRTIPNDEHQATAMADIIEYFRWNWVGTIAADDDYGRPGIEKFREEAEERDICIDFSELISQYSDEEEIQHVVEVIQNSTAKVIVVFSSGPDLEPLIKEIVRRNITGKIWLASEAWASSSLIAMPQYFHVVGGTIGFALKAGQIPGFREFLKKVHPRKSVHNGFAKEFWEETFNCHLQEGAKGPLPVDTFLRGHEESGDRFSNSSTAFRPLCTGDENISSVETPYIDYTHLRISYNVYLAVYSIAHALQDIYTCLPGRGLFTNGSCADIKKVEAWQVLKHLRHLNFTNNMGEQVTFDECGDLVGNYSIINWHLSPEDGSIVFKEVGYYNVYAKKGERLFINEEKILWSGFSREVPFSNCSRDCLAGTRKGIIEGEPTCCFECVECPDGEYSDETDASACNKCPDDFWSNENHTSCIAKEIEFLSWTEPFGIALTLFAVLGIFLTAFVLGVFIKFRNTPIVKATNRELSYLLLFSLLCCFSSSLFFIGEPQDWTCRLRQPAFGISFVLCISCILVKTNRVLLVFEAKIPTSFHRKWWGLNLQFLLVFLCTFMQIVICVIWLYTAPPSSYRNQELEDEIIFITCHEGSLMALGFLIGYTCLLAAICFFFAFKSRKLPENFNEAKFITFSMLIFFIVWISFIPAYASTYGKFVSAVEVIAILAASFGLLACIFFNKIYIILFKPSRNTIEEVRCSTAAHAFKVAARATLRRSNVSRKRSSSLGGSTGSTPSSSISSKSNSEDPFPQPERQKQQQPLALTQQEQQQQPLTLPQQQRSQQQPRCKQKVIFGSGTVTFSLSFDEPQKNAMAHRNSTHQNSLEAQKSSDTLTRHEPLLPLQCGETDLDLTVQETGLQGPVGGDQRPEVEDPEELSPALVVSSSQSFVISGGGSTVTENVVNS
Experiment: CaSR FLIPR assay (calcilytic activity)
Type: cell-based
Design: expressed in transfected cells
Conditions: HEK293 cells stably expressing human recombinant CaSR; 1 mM CaCl2 agonist; Tables 1-24; read-out: FLIPR ASSAY IC50
Task for the reader: assign each of the following molecules its reported IC50.

// IC50 lookup, key: C[C@@H](OC[C@H](O)CNC(C)(C)Cc1ccc(Cl)c(Cl)c1)c1cccc2c1O[C@@H]1[C@@H](C(=O)O)[C@H]21 [Example 1-13]
39 nM

What value of IC50 has been reported for the following molecule? C[C@@H](OC[C@H](O)CNC(C)(C)Cc1ccc([S+](C)[O-])c(F)c1)c1cccc2c1[C@@H]1[C@H](O2)[C@H]1C(=O)O (stereo partly shown) [Example 5-15]
> 10000 nM

Item C[C@@H](OC[C@H](O)CNC(C)(C)Cc1ccc(Cl)cc1F)c1cccc2c1O[C@H]1[C@H](C(=O)O)[C@@H]21 [Example 2-6] has what recorded IC50?
730 nM

# get_value(readout='IC50', item= Cc1ccc([C@@H](C)OC[C@H](O)CNC2(Cc3ccc4ccccc4c3)CC2)c2c1O[C@H]1[C@H](C(=O)O)[C@@H]21 [Example 9-7] )
187 nM

Using the record for C[C@@H](OC[C@H](O)CNC(C)(C)Cc1ccc2ccccc2c1)c1cccc2c1C[C@H]1[C@H](C(=O)O)[C@@H]21 [Example 14-2] , report its IC50.
150 nM

// returns reported IC50 for input C[C@@H](OC[C@H](O)CNC(C)(C)C(=O)N1CCc2ccccc2C1)c1cccc2c1O[C@H]1[C@H](C(=O)O)[C@@H]21 [Example 2-7]
≥ 10000 nM

Reported IC50 for COc1ccc(CC(C)(C)NC[C@@H](O)CO[C@H](C)c2cccc3c2O[C@@H]2[C@@H](C(=O)O)[C@H]32)c(Cl)c1 [Example 1-19] : what is it?
170 nM

Consider the molecule Cc1ccc([C@@H](C)OC[C@H](O)CNC(C)(C)Cc2ccc(Cl)c(Cl)c2)c2c1O[C@H]1[C@H](C(=O)O)[C@@H]21 [Example 9-10] and give its measured IC50.
42 nM

Returns the measured IC50 for the input molecule. Input: Cc1ccc(CC(C)(C)NC[C@@H](O)CO[C@H](C)c2cccc3c2[C@@H]2[C@H](O3)[C@H]2C(=O)O)cc1C [Example 5-5]
26 nM

// query IC50 value for entry Cc1ccc([C@@H](C)OC[C@H](O)CNC(C)(C)Cc2ccc3c(c2)CCC3)c2c1O[C@@H]1[C@@H](C(=O)O)[C@H]21 [Example 8-10]
15 nM

For the molecule shown here, C[C@@H](OC[C@H](O)CNC(C)(C)Cc1ccc2c(c1)CCC2)c1cccc2c1O[C@@H]1[C@@H](C(=O)O)[C@H]21 [Example 1-7] , give the reported IC50.
110 nM

Fill in the blank: the reported IC50 of CSc1ccc(CC(C)(C)NC[C@@H](O)CO[C@H](C)c2cccc3c2[C@@H]2[C@H](O3)[C@H]2C(=O)O)cc1 [Example 5-13] is ____.
72 nM

# IC50 lookup, item C[C@@H](OC[C@H](O)CNC(C)(C)Cc1ccc2ccccc2c1)c1cccc2c1O[C@H]1[C@H](C(=O)O)[C@@H]21 [Example 2-1]
132 nM

Recorded IC50 of CCOC(=O)[C@@H]1[C@H]2Oc3cccc([C@@H](C)OC[C@H](O)CNC(C)(C)Cc4ccc5ccccc5c4)c3[C@H]21 [Example 5-20] , please.
130 nM

Can you look up the measured IC50 of C[C@@H](OC[C@H](O)CNC(C)(C)Cc1ccc2c(c1)OCO2)c1cccc2c1[C@@H]1[C@H](O2)[C@H]1C(=O)O [Example 5-8] for me?
160 nM

I am curious: what IC50 value has been reported for Cc1ccc([C@@H](C)OC[C@H](O)CN2CCCC2(C)Cc2ccccc2)c2c1O[C@@H]1[C@@H](C(=O)O)[C@H]21 (stereo partly shown) [Example 8-18] ?
1330 nM

Would you mind telling me what IC50 value was observed for C[C@@H](OC[C@H](O)CNC(C)(C)CC1Cc2ccccc2C1)c1cccc2c1[C@@H]1[C@H](O2)[C@H]1C(=O)O [Example 5-3] ?
35.5 nM

What value of measured IC50 is listed for Cc1ccc([C@@H](C)OC[C@H](O)CNC(C)(C)Cc2ccc3sccc3c2)c2c1O[C@@H]1[C@@H](C(=O)O)[C@H]21 [Example 8-12] ?
10 nM

Name the recorded IC50 for C[C@@H](OC[C@H](O)CNC(C)(C)Cc1ccc2ccccc2c1)c1cc(F)cc2c1O[C@@H]1[C@@H](C(=O)O)[C@H]21 [Example 19-1] .
176 nM

Consider the molecule Cc1ccc([C@@H](C)OC[C@H](O)CNC(C)(C)CCSc2ccc(F)cc2)c2c1O[C@@H]1[C@@H](C(=O)O)[C@H]21 [Example 8-31] and give its measured IC50.
65 nM

What does the record list as IC50 for C[C@@H](OC[C@H](O)CNC(C)(C)Cc1ccc2ccccc2c1)c1c(Cl)ccc2c1[C@@H]1[C@H](O2)[C@H]1C(=O)O [Example 15-1] ?
17 nM

Name the recorded IC50 for Cc1ccc([C@@H](C)OC[C@H](O)CNC(C)(C)CCOc2ccccc2)c2c1O[C@@H]1[C@@H](C(=O)O)[C@H]21 [Example 8-17] .
90 nM

Request the reported IC50 associated with Cc1ccc([C@@H](C)OC[C@H](O)CNC(C)(C)Cc2cc(F)c(F)cc2F)c2c1O[C@@H]1[C@@H](C(=O)O)[C@H]21 [Example 8-21]
99 nM

What value of IC50 has been recorded for this entry: C[C@@H](OC[C@H](O)CNC(C)(C)Cc1ccc(Cl)c(F)c1)c1cccc2c1O[C@H]1[C@H](C(=O)O)[C@@H]21 [Example 2-2]
148 nM

Item Cc1ccc(CC(C)(C)NC[C@@H](O)CO[C@H](C)c2cccc3c2O[C@@H]2[C@@H](C(=O)O)[C@H]32)cc1F [Example 1-4] has what recorded IC50?
78 nM
